quantityKind: Ki (nM)
Your answer should be a plain number; it is taken to be in nM.

Qu. Recorded Ki for "COc1nc(NCCCN2CCOCC2)nc(OC)c1NC(=O)c1ccc(Oc2cc3c(cc2C)CCC3(C)C)o1" with Adenosine receptor A3 (Homo sapiens, UniProt P0DMS8), please?
Ans. 628

* * *

experiment: Volume of distribution in Sprague-Dawley rat at 5 mg/kg, iv or 20 mg/kg, po; format: ADME, organism-based; conditions: in vivo, read-out: Vdss
quantityKind: Vd (L/kg)
Please give a number only; it is taken to be in L/kg.

Qu. What value of Vd has been reported for the following molecule? "COc1nc(NCCCN2CCOCC2)nc(OC)c1NC(=O)c1ccc(Oc2cc3c(cc2C)CCC3(C)C)o1"
Ans. 1.1

* * *

quantityKind: pKi
In textbook form, pKi equals minus log to base ten of the concentration in mol/L.

Qu. I'm curious: which pKi was measured for "COc1nc(NCCCN2CCOCC2)nc(OC)c1NC(=O)c1ccc(Oc2cc3c(cc2C)CCC3(C)C)o1" tested on Substance-P receptor (Homo sapiens)?
Ans. 5.90

* * *

biological target: Sodium-dependent dopamine transporter (Homo sapiens, UniProt Q01959)
Sequence (Q01959 whole entry): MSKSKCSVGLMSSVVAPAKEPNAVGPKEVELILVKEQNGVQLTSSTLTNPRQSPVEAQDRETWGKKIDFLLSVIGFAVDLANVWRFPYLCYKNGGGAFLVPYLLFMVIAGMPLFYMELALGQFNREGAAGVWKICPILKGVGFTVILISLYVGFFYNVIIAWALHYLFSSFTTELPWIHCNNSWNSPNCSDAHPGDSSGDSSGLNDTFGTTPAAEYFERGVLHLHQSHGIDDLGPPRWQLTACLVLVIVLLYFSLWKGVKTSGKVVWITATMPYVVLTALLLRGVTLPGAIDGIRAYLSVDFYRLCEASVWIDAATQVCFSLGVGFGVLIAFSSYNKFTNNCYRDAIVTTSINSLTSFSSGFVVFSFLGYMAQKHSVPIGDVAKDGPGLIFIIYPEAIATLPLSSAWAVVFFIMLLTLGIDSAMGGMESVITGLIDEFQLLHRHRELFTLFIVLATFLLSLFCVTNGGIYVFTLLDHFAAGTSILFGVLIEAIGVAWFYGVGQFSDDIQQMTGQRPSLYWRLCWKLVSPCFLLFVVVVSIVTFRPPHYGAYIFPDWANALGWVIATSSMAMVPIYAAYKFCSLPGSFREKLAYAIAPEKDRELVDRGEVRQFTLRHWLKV
quantityKind: pKi
Scale: pKi equals -log10([C]), with [C] in mol/L.

Qu. # get_value(readout='pKi', item= "COc1nc(NCCCN2CCOCC2)nc(OC)c1NC(=O)c1ccc(Oc2cc3c(cc2C)CCC3(C)C)o1" )
Ans. 5.74

* * *

quantityKind: IC50 (µM)
Dear colleague, please return just the value in µM, with no unit written.

Qu. Lookup: IC50 / Cytochrome P450 2C9 (Homo sapiens) / "COc1nc(NCCCN2CCOCC2)nc(OC)c1NC(=O)c1ccc(Oc2cc3c(cc2C)CCC3(C)C)o1"
Ans. 3

* * *

target: Voltage-gated L-type calcium channel (Homo sapiens, UniProt Q13936+Q13698+Q01668+O60840); assay: Binding affinity to diltiazem site of L type calcium channel; type: protein assay
quantityKind: Ki
Write down the value, and be sure its unit follows.

Qu. What does the data say about its Ki? Entry: "COc1nc(NCCCN2CCOCC2)nc(OC)c1NC(=O)c1ccc(Oc2cc3c(cc2C)CCC3(C)C)o1"
Ans. 0.37 µM

* * *

test: Half life in Sprague-Dawley rat at 5 mg/kg, iv or 20 mg/kg, po; type: ADME, organism-based; conditions: in vivo
quantityKind: half-life
Answer as a quantity: numeral, then unit.

Qu. Which half-life reading was recorded for the compound "COc1nc(NCCCN2CCOCC2)nc(OC)c1NC(=O)c1ccc(Oc2cc3c(cc2C)CCC3(C)C)o1" ?
Ans. 5.1 h

* * *

assay: Clearance in Sprague-Dawley rat at 5 mg/kg, iv or 20 mg/kg, po; assay type: ADME, organism-based; details: in vivo
quantityKind: clearance

Qu. Which clearance is listed for "COc1nc(NCCCN2CCOCC2)nc(OC)c1NC(=O)c1ccc(Oc2cc3c(cc2C)CCC3(C)C)o1" ?
Ans. 5.5 mL/min/kg

* * *

assay: Inhibition KCl-stimulated calcium channel activity
quantityKind: IC50

Qu. Fill in: IC50 of "COc1nc(NCCCN2CCOCC2)nc(OC)c1NC(=O)c1ccc(Oc2cc3c(cc2C)CCC3(C)C)o1" is ___
Ans. 6.3 µM

* * *

quantityKind: Ki (µM)
Please respond with the number in µM and leave the unit unwritten.

Qu. # value lookup — system Sodium-dependent noradrenaline transporter (Homo sapiens), readout Ki, item "COc1nc(NCCCN2CCOCC2)nc(OC)c1NC(=O)c1ccc(Oc2cc3c(cc2C)CCC3(C)C)o1"
Ans. 5.09

* * *

target: Voltage-gated L-type calcium channel (Homo sapiens, UniProt Q13936+Q13698+Q01668+O60840); test: Binding affinity to DHP site of L type calcium channel; type: protein assay
quantityKind: pKi
Scale note: pKi = -log10(concentration in M).

Qu. So what does the record say about pKi for "COc1nc(NCCCN2CCOCC2)nc(OC)c1NC(=O)c1ccc(Oc2cc3c(cc2C)CCC3(C)C)o1" ?
Ans. 6.84

* * *

experiment: Oral bioavailability in Sprague-Dawley rat at 5 mg/kg, iv and 20 mg/kg, po; format: ADME, organism-based; conditions: in vivo
quantityKind: bioavailability (%)
Just the number in %, nothing appended.

Qu. Reported bioavailability for "COc1nc(NCCCN2CCOCC2)nc(OC)c1NC(=O)c1ccc(Oc2cc3c(cc2C)CCC3(C)C)o1" : what is it?
Ans. 26

* * *

biological target: D(1A) dopamine receptor (Homo sapiens, UniProt P21728); assay: Binding affinity to human D1 receptor
Sequence (P21728 whole entry): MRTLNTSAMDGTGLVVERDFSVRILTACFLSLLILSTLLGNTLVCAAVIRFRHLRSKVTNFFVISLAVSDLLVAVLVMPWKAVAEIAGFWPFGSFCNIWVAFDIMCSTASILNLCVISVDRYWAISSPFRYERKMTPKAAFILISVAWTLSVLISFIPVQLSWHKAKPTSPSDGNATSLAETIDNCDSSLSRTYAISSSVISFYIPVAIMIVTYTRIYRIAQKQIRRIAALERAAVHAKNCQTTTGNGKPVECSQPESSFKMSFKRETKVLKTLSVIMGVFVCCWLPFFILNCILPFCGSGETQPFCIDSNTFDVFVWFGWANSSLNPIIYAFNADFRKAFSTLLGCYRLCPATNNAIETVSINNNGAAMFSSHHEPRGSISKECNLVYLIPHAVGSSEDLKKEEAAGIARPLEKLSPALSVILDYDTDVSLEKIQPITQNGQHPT
quantityKind: Ki
Please provide the amount together with its unit, number first.

Qu. Query: Ki; subject: "COc1nc(NCCCN2CCOCC2)nc(OC)c1NC(=O)c1ccc(Oc2cc3c(cc2C)CCC3(C)C)o1"
Ans. 1620 nM

* * *

molecular target: UniProt:P30969; test: Antagonist activity at rat pituitary GnRH receptor assessed as inhibition of GnRH-stimulated inositol phosphate accumulation; assay type: functional; conditions: in the assay text read “recombinant rat” for “rat pituitary”
Sequence (P30969 whole entry): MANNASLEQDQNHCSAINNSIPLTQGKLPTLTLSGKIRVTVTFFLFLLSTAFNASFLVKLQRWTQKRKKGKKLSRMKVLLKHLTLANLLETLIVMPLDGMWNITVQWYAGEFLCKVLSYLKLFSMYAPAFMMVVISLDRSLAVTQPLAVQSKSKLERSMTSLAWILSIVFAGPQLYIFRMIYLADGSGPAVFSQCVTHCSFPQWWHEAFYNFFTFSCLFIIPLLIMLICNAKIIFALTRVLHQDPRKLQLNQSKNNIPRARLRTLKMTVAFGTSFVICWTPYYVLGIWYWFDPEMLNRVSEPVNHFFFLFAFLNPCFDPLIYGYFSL
quantityKind: IC50 (nM)
Just the number in nM, nothing appended.

Qu. Reported IC50 for "COc1nc(NCCCN2CCOCC2)nc(OC)c1NC(=O)c1ccc(Oc2cc3c(cc2C)CCC3(C)C)o1" : what is it?
Ans. 8.8
